Test system: NCI/ADR-RES ovarian
ASSAY METHOD TEXT: NCI-60 one-dose screen, 48 h
PARTICULARS: 10 µM unless noted
About 83,000 compounds went through this panel and 20% of them were active in at least one assay; those are over-represented in the sample as a whole. Activity calls are given as the source filed them. Rule for the calls: active = growth percent below 10; inactive = the rest.
Hello, when you answer, please use one of the following outcomes: active, inactive

Illustrative cases are given below, each with its answer.
* N#Cc1c(N)nc(Nc2nc3ccccc3[nH]2)nc1-c1ccc(Cl)cc1 | inactive
* CCCCCCCCCCCCCCCCCC1=NCCN1CS(=O)(=O)O | inactive
* CC(C)(C)C(=O)CCCCCCCC/C=C/CCCC(O)c1ccco1 (stereo not drawn) | inactive
* O=C1NCCN1/N=C/c1c(Cl)nc2n1CCS2 | inactive
* COc1nc(OC)nc(-c2cc(C(=O)c3ccc(Br)cc3)n3cc(C)cc(C)c23)n1 | inactive
* CC(Br)c1nc2ccccc2cc1C(N)=O (stereo not drawn) | inactive
* NC(=O)c1c(Nc2ccccc2)nn2cc(-c3nc4ccccc4s3)c(N)nc12 | inactive
* O=C(/C=C/c1cccc(O)c1)c1cccc(-n2cc(-c3ccc(Cl)cc3)[nH]c2=O)c1 | active

Query: Hi, do you know how COc1cccc(-c2cc(-c3cc4ccccc4oc3=O)nc(N)n2)c1 came out in this test?
Reply: inactive

Query: Hi, do you know how O=C(O)c1ccc(Br)nc1 came out in this test?
Reply: inactive

Query: Hi, do you know how COC(=O)C(N)CC(C)C (stereo not drawn) came out in this test?
Reply: inactive

* * *

System: A498 renal
ASSAY METHOD TEXT: NCI-60 one-dose screen, 48 h
PARTICULARS: 10 µM unless noted
Compounds without any hit were thinned out: in the full panel of roughly 83,000, 20% have a hit. The source made the active and inactive calls. The calls were made as follows: active = growth percent below 10; inactive = the rest.
Hello, when you answer, please use one of the following outcomes: active, inactive

• CCOc1ccc2nc3ccc(Cl)cc3nc2c1 = inactive
• CCCCCCCCCCCCCCCCCC(=O)Nc1ccc(O)cc1 = inactive
• C/C=C(/C)C(=O)OC1C=C(CO)C(=O)C(OC(=O)C2(C)OC2C)C1C(C)C (stereo not given) = active

Query: Hi, do you know how c1ccc2[nH]c(-c3ccc(OCCCCCOc4ccc(-c5nc6ccccc6[nH]5)cc4)cc3)nc2c1 came out in this test?
Reply: inactive

Query: Hi, do you know how CSCc1ncc(-c2ccc(C(F)(F)F)cc2)c(NC2CCCCCC2)n1 came out in this test?
Reply: inactive

* * *

Tested on: HCT-15 colon
ASSAY METHOD TEXT: NCI-60 one-dose screen, 48 h (100 = growth as untreated, 0 = no growth, -100 = all killed)
PARTICULARS: 10 µM unless noted
The panel holds about 83,000 compounds, 20% with a hit somewhere; the sample as a whole holds those more often.
The threshold is inclusive: growth of exactly 40% counts as Satisfied; values below receive Not satisfied.

Illustrative cases are given below, each with its answer.
• O=C(CCl)c1ccc2c(c1)CCCC2 = Satisfied
• CCCC(C)c1cc(Cc2cc(Cl)cc(Cl)c2O)c(O)c(Cc2cc(Cl)cc(Cl)c2O)c1 (stereo unspecified) = Not satisfied
• CCCCCCCCCCN1CC2CCCCC2C1 (stereo unspecified) = Not satisfied
• COc1cc(NC(=O)CSc2nc3ccc(Cl)cc3c(=O)n2-c2ccc(F)cc2)cc(OC)c1OC = Satisfied
• Oc1ccc(Br)cc1/C=N/NC(=S)NC12CC3CC(CC(C3)C1)C2 = Not satisfied

Query: Tell me whether growth is at least 40% here: Cc1ccc(C(=O)NN)cc1
Reply: Satisfied

Query: Tell me whether growth is at least 40% here: Cc1nnc(/N=C2\NC(=O)/C(=C/C=C/c3ccccc3)S2)s1
Reply: Not satisfied

Query: Tell me whether growth is at least 40% here: COc1cccc(NC(=O)NCCNc2nccc(-c3c(-c4ccc(F)cc4)nc4sccn34)n2)c1
Reply: Satisfied

Query: Tell me whether growth is at least 40% here: CCOc1ccccc1/C=N\N=C(N/N=C/c1ccccc1OCC)N/N=C/c1ccccc1OCC
Reply: Not satisfied

Query: Tell me whether growth is at least 40% here: CC(C)(C)OC(=O)N1C/C(=C\c2ccccc2)C(=O)/C(=C/c2ccccc2)C1
Reply: Satisfied

Query: Tell me whether growth is at least 40% here: Cc1ncc(C(=O)Nc2ccc(CN3CCN(C)CC3)c(C(F)(F)F)c2)cc1C#Cc1c(N)ncc2ccccc12
Reply: Not satisfied

* * *

System: A498 renal
ASSAY METHOD TEXT: NCI-60 one-dose screen, 48 h
PARTICULARS: 10 µM unless noted
About 83,000 compounds went through this panel and 20% of them were active in at least one assay; those are over-represented in the sample as a whole. Active and inactive are the calls of the source. Rule for the calls: active = growth percent below 10; inactive = the rest.
Hello, when you answer, please use one of the following outcomes: label 1 for active, label 0 for inactive

Illustrative cases are given below, each with its answer.
* O=C1C(Cl)=C(SC2=NCCN2)C(=O)c2ccccc21 | label 0
* COC1(OC)N=C(N)C2(C#N)C3(C(=O)Nc4ccccc43)C12C#N (configuration not stated) | label 1
* Cc1ccc(S(=O)(=O)NC(CCC(=O)Nc2ccccc2)C(=O)Nc2ccccc2)cc1 (configuration not stated) | label 1
* N=C(c1ccccc1)N(Cc1ccccc1)Cc1ccccc1 | label 0

Query: Hi, do you know how CC1(c2ccc(Br)cc2)NC(=O)NC1=O (configuration not stated) came out in this test?
Reply: label 0

Query: Hi, do you know how Cc1c(O)c(N=Nc2ccc(C(=O)O)c(O)c2)c2ccccc2c1O came out in this test?
Reply: label 0

Query: Hi, do you know how Clc1ccc(N/N=C/c2ccccn2)nc1 came out in this test?
Reply: label 1

* * *

Tested on: LOX IMVI melanoma
ASSAY METHOD TEXT: NCI-60 one-dose screen, 48 h (100 = growth as untreated, 0 = no growth, -100 = all killed)
PARTICULARS: 10 µM unless noted
Compounds without any hit were thinned out: in the full panel of roughly 83,000, 20% have a hit.
MEASURED ENDPOINT: growth (%)
State the answer as a number, implicitly in %.

Below, each entry is followed by its recorded growth result.
• COc1cc2c(/C=C3\C(=O)Nc4ccc(Br)cc43)c(Cl)n(C)c2cc1C = 9.9
• CCCCCCCCCCCCCCCCCC1=NCCN1CCNC(C)=O = -14.6
• C[C@]12C=CC(=O)C=C1[C@@H](F)C[C@@H]1[C@@H]2[C@@H](O)C[C@@]2(C)[C@H]1CC[C@]2(O)C(=O)CO = 103
• N/C(=N\O)c1ccncc1 = 96.2
• O=C1NCCN1/N=C/c1c(Cl)nc2n1CCS2 = 101
• CN1CCN(Cc2ccc(NC(=O)c3cncc(C#Cc4c(N)ncc5ccc(F)cc45)c3)cc2C(F)(F)F)CC1 = -8.63

Query: Return the recorded growth value; entry: Cc1ccc(CC(=O)O)c(C)c1
Reply: 98

Query: Return the recorded growth value; entry: CN(C)CCOC(=O)C(C)(C)C
Reply: 105

* * *

Test system: BT-549 breast
ASSAY METHOD TEXT: NCI-60 one-dose screen, 48 h (100 = growth as untreated, 0 = no growth, -100 = all killed)
PARTICULARS: 10 µM unless noted
About 83,000 compounds went through this panel and 20% of them were active in at least one assay; those are over-represented in the sample as a whole.
MEASURED ENDPOINT: growth (%)
State the answer as a number, implicitly in %.

Below, each entry is followed by its recorded growth result.
- CCCCCSc1ccc2nc(NC(=O)OCC)sc2c1: 37.2
- CC(O)CN(CCO)CCN(CCO)CC(C)O (stereo not given): 105
- O=C1c2cc([N+](=O)[O-])ccc2-c2cc(Cl)c(NC(=O)C(F)(F)F)cc21: 108
- N/C(=N\O)c1ccncc1: 98.3
- CCCCN(CCCC)c1ccc(C(=O)O)cc1: 97
- CC1=C[C@@H]2c3c(c(O)c(O)c4oc5cc(O)cc(O)c5c(=O)c34)[C@@H](c3cc(O)c(O)c4oc5cc(O)cc(O)c5c(=O)c34)[C@@H]2C(C)(C)C1: 12.1
- CC(C)(C)C(=O)OCOP(=O)(OCOC(=O)C(C)(C)C)C1CC(O)N(O)C1=O (stereo not given): -8.94
- CCCCCCCCCCC1OC(C)CC(C)O1 (stereo not given): 101
- COc1ccc(/C=C2\SC(=O)N(Cc3cc(=O)oc4ccc(OC)cc34)C2=O)cc1: 77.4
- CCOC(=O)CNS(=O)(=O)CC(=O)c1ccccc1: 86.4

Query: Answer with growth of O=C(Nc1ccccc1)Nc1ccc(Nc2ncnc3sc4c(c23)CCCC4)cc1 measured for BT-549 breast.
Reply: 109

Query: Answer with growth of Nc1nc2c(c3cnccc13)C(c1ccc(Cl)c(Cl)c1)Cc1cnccc1-2 (stereo not given) measured for BT-549 breast.
Reply: -39.1

Query: Answer with growth of CCCCCSc1ccc2nc(NC(=O)OCCC)sc2c1 measured for BT-549 breast.
Reply: 34.2
